# TEST: Pharmacokinetics of LW105-1-1 in mice
# Format: in vivo
# MEASUREMENT_SETUP: mouse, plasma; male C57BL/6 mice, oral gavage 30 mg/kg
MEASUREMENT_TYPE: AUC(0-inf) (ng·h/mL)
Give bare numbers, in ng·h/mL.

[ask] I have this compound here, CS(=N)(=O)NCCNc1nonc1C(=NO)Nc1ccc(F)c(Br)c1 (racemic) , and I need its recorded AUC(0-inf).
[reply] 10100

---

# TEST: Pharmacokinetics of LW105-1-1 in mice
# Type: in vivo
# MEASUREMENT_SETUP: mouse, plasma; male C57BL/6 mice, oral gavage 30 mg/kg; read-out: T1/2 (converted)
MEASUREMENT_TYPE: half-life (h)
Numbers only, in h.

[ask] I have this molecule here, CS(=N)(=O)NCCNc1nonc1C(=NO)Nc1ccc(F)c(Br)c1 (racemic) [LW105-1-1] , and I need its recorded half-life.
[reply] 2.7
